Species: Rattus norvegicus
Test: Antagonist activity at rat adrenergic receptor assessed as inhibition of adrenaline-induced response
Endpoint: log(1/C)
// response body must contain only the number

[[record]]
molecule = "CN(C)CC(Br)c1ccc(I)cc1 (stereo not drawn)"
measured_number = 9.25


As a next step, examine the molecule that follows.
Recorded log(1/C) for Cc1ccc(C(Br)CN(C)C)cc1 (stereo not drawn) , please? 9.3

---

Species: Rattus norvegicus
Test: Antagonist activity at rat adrenergic receptor assessed as inhibition of adrenaline-induced response
Reported log(1/C) values for the following compounds.
// response body must contain only the number

[[record]]
compound = "CN(C)CC(Br)c1cccc(I)c1 (stereo unspecified)"
measured_number = 8.4


Recorded log(1/C) for CN(C)CC(Br)c1cccc(F)c1 (stereo unspecified) , please? 7.52

Recorded log(1/C) for Cc1cc(C(Br)CN(C)C)ccc1F (stereo unspecified) , please? 8.82

Recorded log(1/C) for Cc1cc(C(Br)CN(C)C)ccc1Br (stereo unspecified) , please? 9.22

Recorded log(1/C) for CN(C)CC(Br)c1ccc(F)c(Cl)c1 (stereo unspecified) , please? 8.19

Recorded log(1/C) for CN(C)CC(Br)c1cccc(Br)c1 (stereo unspecified) , please? 8.3

---

Reported log(1/C) values for the following molecules.
Species: Rattus norvegicus
Experiment: Antagonist activity at rat adrenergic receptor assessed as inhibition of adrenaline-induced response
// response body must contain only the number

Example entries and their recorded answers appear below.
[[record]]
molecule = "CN(C)CC(Br)c1ccc(Br)c(Br)c1 (stereo not given)"
measured_number = 9.35

[[record]]
molecule = "CN(C)CC(Br)c1ccc(Br)cc1 (stereo not given)"
measured_number = 8.89

[[record]]
molecule = "CN(C)CC(Br)c1ccc(F)c(Br)c1 (stereo not given)"
measured_number = 8.57

[[record]]
molecule = "Cc1ccc(C(Br)CN(C)C)cc1C (stereo not given)"
measured_number = 9.3


As a next step, examine the molecule that follows.
Recorded log(1/C) for CN(C)CC(Br)c1ccc(Cl)c(Br)c1 (stereo not given) , please? 8.92
